biological target: UniProt:P50053; test: KHK Biochemical Assay (IC50), ADP-Glo, KHK-A; conditions: ADP-Glo; average of at least two separate assays
Sequence (P50053 other isoform, or with tags, fused parts or gaps): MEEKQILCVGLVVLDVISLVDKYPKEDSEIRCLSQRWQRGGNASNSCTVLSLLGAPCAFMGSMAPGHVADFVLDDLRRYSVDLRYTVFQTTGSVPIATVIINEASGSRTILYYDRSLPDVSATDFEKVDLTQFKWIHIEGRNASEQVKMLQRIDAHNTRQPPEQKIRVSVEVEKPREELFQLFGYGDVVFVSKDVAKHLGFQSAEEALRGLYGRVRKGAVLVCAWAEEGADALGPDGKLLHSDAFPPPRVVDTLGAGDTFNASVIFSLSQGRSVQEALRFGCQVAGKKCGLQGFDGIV
readout kind: IC50 (nM)

[[record]]
molecule = "Cc1ccc(-c2nc(N3CC[C@@H]3C)nc3c2CCC3)cc1C(N)=O"
readout_kind = "IC50"
measure_unit = "nM"
value_measured = 58.9

[[record]]
molecule = "C[C@H]1[C@H](O)CN1c1nc(-c2cccc(S(N)(=O)=O)c2)c2c(n1)C(F)(F)CC2"
readout_kind = "IC50"
measure_unit = "nM"
value_measured = 5.1

[[record]]
molecule = "C[C@H]1CCN1c1nc2c(c(-c3ccc4c(c3)C(=O)NC4)n1)CCC2"
readout_kind = "IC50"
measure_unit = "nM"
value_measured = 23.2

[[record]]
molecule = "C[C@H]1CCN1c1nc2c(c(-c3cc(C(N)=O)cc([N+](=O)[O-])c3)n1)CCC2"
readout_kind = "IC50"
measure_unit = "nM"
value_measured = 374

[[record]]
molecule = "C[C@H]1CCN1c1nc2c(c(-c3cnsc3)n1)CCC2"
readout_kind = "IC50"
measure_unit = "nM"
value_measured = 121


A = C[C@H]1CCN1c1nc(-c2cccc(S(N)(=O)=O)c2)c2c(cnn2C)n1
B = Cc1nc2cc(-c3nc(N4CC[C@@H]4C)nc4c3CCC4)ccc2c(=O)[nH]1
C = C[C@H]1CCN1c1nc2c(c(-c3cccc(S(=O)(=O)N(C)C)c3)n1)CCC2
Request: I would appreciate it if you could sort these 3 molecules by IC50, starting from the smallest number. Returns: the labels listed in the requested order.
Response: B, C, A

A = C[C@H]1CCN1c1nc2c(c(-c3ccc(C4(N)COC4)cc3)n1)CCC2
B = C[C@H]1CCN1c1nc2c(c(-c3ccc4ccc(=O)[nH]c4c3)n1)CCC2
C = C[C@H]1[C@H](O)CN1c1nc2c(c(-c3ccc(C4(N)CC4)cc3)n1)CCC2
D = C[C@H]1[C@H](O)CN1c1nc2c(c(-c3ccc(C4(N)COC4)cc3)n1)CCC2
E = COC(=O)CCc1ccccc1-c1nc(N2CC[C@@H]2C)nc2c1CCC2
Request: Arrange by IC50, high to low. Returns: the labels listed in the requested order.
Response: E, B, D, C, A
